Record form. Attribute: pIC50. Fill in for each entry.
Assay: In vitro binding affinity against sigma receptor by using [3H]-DTG ([3H]-6) as radioligand in guinea pig cerebellum.
Scale explanation: pIC50 corresponds to minus log10 of a concentration expressed in moles per litre.

INPUT: Sample `C=CCCN1CCC2(CCCc3ccccc32)CC1` — what was its pIC50?
OUTPUT: 8.18

INPUT: Using the record for `COc1ccc(CN2CCC3(CCCc4ccccc43)CC2)cc1` , report its pIC50.
OUTPUT: 8.77

INPUT: If you can, please state the reported pIC50 value of `c1ccc(CN2CCC3(CCCCc4ccccc43)CC2)cc1` .
OUTPUT: 8.17

INPUT: GET /values?readout=pIC50&item= `CCCCN1CCC2(CCCCc3ccccc32)CC1`
OUTPUT: 8.32

INPUT: What does the record list as pIC50 for `c1coc(CN2CCC3(CCCc4ccccc43)CC2)c1` ?
OUTPUT: 8.02

INPUT: Bench note: what pIC50 did `c1ccc(CCN2CCC3(CCc4ccccc43)CC2)cc1` show?
OUTPUT: 8.55

INPUT: # pIC50 lookup, item `COc1ccc(CN2CCC3(CCc4ccccc43)CC2)cc1`
OUTPUT: 8.46

INPUT: Name the reported pIC50 value associated with the compound `c1ccc(CN2CCC3(CCc4ccccc43)CC2)nc1`
OUTPUT: 7.80

INPUT: For the compound `CCCCN1CCC2(CCc3ccccc32)CC1` , what pIC50 is on record?
OUTPUT: 8.70

INPUT: Look up pIC50 for this compound: `CCCCCCN1CCC2(CCCc3ccccc32)CC1`
OUTPUT: 8.54

INPUT: I have this compound here, `C=CCN1CCC2(CCCc3ccccc32)CC1` , and I need its recorded pIC50.
OUTPUT: 7.74

INPUT: Dear colleague, I am looking for the recorded pIC50 of the following compound: `Cc1ccc2c(c1)CCCC21CCN(Cc2ccccc2)CC1`
OUTPUT: 8.26

INPUT: Sample c1ccc2c(c1)CCCC21CCN(CC2CCCO2)CC1 (stereo not given) — what was its pIC50?
OUTPUT: 8.26

INPUT: Please give the measured pIC50 for this compound: `c1ccc2c(c1)CCCC21CCN(CC2CC2)CC1`
OUTPUT: 8.00

INPUT: Which pIC50 value belongs to `c1csc(CN2CCC3(CCCc4ccccc43)CC2)c1` ?
OUTPUT: 8.20

INPUT: What value of measured pIC50 is listed for `Oc1ccc2c(c1)C1(CCC2)CCN(Cc2ccccc2)CC1` ?
OUTPUT: 7.16

INPUT: Data request, read-out pIC50, for `c1ccc(CCN2CCC3(CCCc4ccccc43)CC2)cc1`
OUTPUT: 8.30

INPUT: Record request: pIC50 value, item `Cc1ccc(CN2CCC3(CCc4ccccc43)CC2)cc1`
OUTPUT: 8.23

INPUT: Query: pIC50; subject: `Clc1ccc(CN2CCC3(CCCc4ccccc43)CC2)cc1`
OUTPUT: 8.17

INPUT: For the compound shown here, `O=[N+]([O-])c1ccc(CN2CCC3(CCCc4ccccc43)CC2)cc1` , give the reported pIC50.
OUTPUT: 7.85

Entry source: BindingDB's records for doi:10.1021/jm00089a013
